Where do these numbers come from? They come from ChEMBL document CHEMBL5058577.

test system: Fibroblast; assay: Multiplex assay against human fibroblast; type: toxicity, cell-based; details: 12 h, 10 µM, compound concentration 10 uM, replicate 2
metric: Population Hoechst High Intensity Objects (%)
Give your result as the value with the unit written after it.

>  <compound>
S=C(NCCCc1c[nH]cn1)NCCCN(Cc1ccc(Cl)c(Cl)c1)c1ccc(Br)cn1

>  <system name>
Fibroblast

>  <endpoint result>
5%

$$$$
>  <compound>
Cc1c(Cc2ccc3ccccc3n2)c2cc(F)ccc2n1CC(=O)O [TIMAPIPRANT]

>  <system name>
Fibroblast

>  <endpoint result>
5%

$$$$
>  <compound>
CN(C)C(=O)Cn1cc(-c2ccc(-c3nnc4ccccn34)cc2)cn1

>  <system name>
Fibroblast

>  <endpoint result>
8%

$$$$

compound COc1cc(Nc2ncc3c(n2)-c2ccc(Cl)cc2C(c2c(F)cccc2OC)=NC3)ccc1C(=O)O [ALISERTIB] , Population Hoechst High Intensity Objects (%) observed: 8%

* * *

test system: HEK-293T; experiment: Multiplex assay against HEK293T; type: toxicity, cell-based; settings: human, 24 h, 10 µM, compound concentration 10 uM, replicate 2
Mark each entry MET if its Total Cell Count sits below 400, and NOT MET for all others.

>  <molecule>
O=c1ccc2ccc(OCCCCN3CCN(c4cccc5sccc45)CC3)cc2[nH]1

>  <system name>
HEK-293T

>  <category label>
MET

$$$$

Turning to the following compound.
**Query** A record lists Cc1nn(C)c2nc(NNC(=O)Nc3cc(Cl)nc(Cl)c3)cc(C(C)C)c12 . Is its Total Cell Count below 400?
**Result** NOT MET

* * *

test system: HEK-293T; experiment: Multiplex assay against HEK293T; format: toxicity, cell-based; settings: human, 12 h, 1 µM, compound concentration 1 uM, replicate 2
Non-standard residues stand in square brackets, D forms with d. Residues, ends and D or L forms follow the SMILES beside them.
metric: Total Cell Count
Numbers only.

>  <compound>
COCCCN1CCC(NC(=O)c2cc(Cl)c(N)c3c2OCC3)CC1 [PRUCALOPRIDE]

>  <Total Cell Count>
397

$$$$
>  <compound>
CN1CCN2c3ccccc3Cc3ccccc3C2C1.Cl (stereo unspecified) [MIANSERIN HYDROCHLORIDE]

>  <Total Cell Count>
376

$$$$
>  <compound>
S=C(NCCCc1c[nH]cn1)NCCCN(Cc1ccc(Cl)c(Cl)c1)c1ccc(Br)cn1

>  <Total Cell Count>
294

$$$$

Go through the items and report each one's Total Cell Count.
1. O=c1ccc2ccc(OCCCCN3CCN(c4cccc5sccc45)CC3)cc2[nH]1
2. Cc1cc(O)c(-c2ccc([C@@H](C)CN(C)C)cc2)c2c1[nH]c(=O)c1sccc12
3. CC(C)(C)c1ccc(CSc2cnn(C(C)(C)C)c(=O)c2Cl)cc1
4. CSc1nc(NC2CCCC2)c([N+](=O)[O-])c(NC2CCCC2)n1
5. COc1cc(C(=O)N2CC[C@@H](O)[C@@H](N)C2)cc2nc(-c3cc4ccccc4n3CC3CC3)n(C)c12.Cl
6. CCc1nn2c(C)cc(C)nc2c1Cc1ccc(-c2nnc(C3CCNCC3)o2)cc1
7. Nc1nc(CC(=O)Nc2ccc(CCNC[C@H](O)c3ccccc3)cc2)cs1
8. CC(C)C[C@@H]1NC(=O)[C@@H](C(C)C)NC(=O)[C@@H]2CCCN2C(=O)[C@@H](CC(=O)O)NC(=O)[C@@H](Cc2c[nH]c3ccccc23)NC1=O [BQ-123] (cyclo(L[dW][dD]P[dV]))

**Result**
[354, 207, 306, 301, 281, 395, 332, 392]

* * *

system: HEK-293T; test: Multiplex assay against HEK293T; format: toxicity, cell-based; details: human, 48 h, 1 µM, compound concentration 1 uM, replicate 1
For each record, write down the corresponding Population Healthy Nuclei (%).
Answers are plain numbers, in %.

Solved cases (4 shown):
>  <compound>
Nc1nc(CC(=O)Nc2ccc(CCNC[C@H](O)c3ccccc3)cc2)cs1

>  <Population Healthy Nuclei (%)>
80

$$$$
>  <compound>
COc1ccc2c(c1OCc1ccccc1)C[C@@H](C(=O)O)N(C(=O)C(c1ccccc1)c1ccccc1)C2

>  <Population Healthy Nuclei (%)>
80

$$$$
>  <compound>
CCCCCCNC(=O)Nc1ccc(S(=O)(=O)Nc2ccc(CCNC[C@H](O)COc3ccc(O)cc3)cc2)cc1

>  <Population Healthy Nuclei (%)>
81

$$$$
>  <compound>
CC(F)(F)CN1CCOc2c(nn(-c3ccccc3Cl)c2-c2ccc(Cl)cc2)C1=O

>  <Population Healthy Nuclei (%)>
77

$$$$

Parameter requested: Population Healthy Nuclei (%). Apply to each item below.
1. COc1cc(C(=O)N2CC[C@@H](O)[C@@H](N)C2)cc2nc(-c3cc4ccccc4n3CC3CC3)n(C)c12.Cl
2. CCc1nn2c(C)cc(C)nc2c1Cc1ccc(-c2nnc(C3CCNCC3)o2)cc1
3. Cc1ccc(OCC(O)C(C)NC(C)C)c2c1CCC2.Cl (stereo not given)
4. C[C@@H]1CC(=O)Nc2cccc(-c3ccc4c(c3)c(-c3cnn(C)c3)nn4C)c2N1
5. CC(C)(C)c1ccc(CSc2cnn(C(C)(C)C)c(=O)c2Cl)cc1
6. Cn1cc(C(=O)OCC2CCN(CCNS(C)(=O)=O)CC2)c2ccccc21

**Result**
1: 79; 2: 79; 3: 79; 4: 80; 5: 80; 6: 78

For each entry beneath this line, provide reported Population Healthy Nuclei (%).
1. Nc1nc(-c2ccco2)c2cnn(Cc3ccccc3F)c2n1
2. COc1ccc2[nH]c(I)c(CCNC(C)=O)c2c1
3. COC(c1ccccc1)(c1ccccc1)[C@H](Oc1nc(C)cc(C)n1)C(=O)O

**Result**
1. 75
2. 79
3. 72

Hey, quick one: what's Population Healthy Nuclei (%) for each of these?
1. COCCn1c(C)c(C)s/c1=N\C(=O)C1C(C)(C)C1(C)C
2. Cc1sc2c(c1C)C(c1ccc(Cl)cc1)=N[C@H](CC(=O)OC(C)(C)C)c1nnc(C)n1-2

**Result**
[75, 80]

* * *

system: U2OS; assay: Multiplex assay against U2OS; assay type: toxicity, cell-based; details: human, 48 h, 10 µM, compound concentration 10 uM, replicate 2
metric: Total Cell Count
One number for each entry.

Here is how some compounds turned out for Total Cell Count.
>  <compound>
Cl.Cl.OCCOCCN1CCN(C(c2ccccc2)c2ccc(Cl)cc2)CC1 (centres undefined) [HYDROXYZINE HYDROCHLORIDE]

>  <Total Cell Count>
231

$$$$
>  <compound>
OCCCNc1cc(-c2ccnc(Nc3cccc(Cl)c3)n2)ccn1

>  <Total Cell Count>
134

$$$$
>  <compound>
O=c1nc2[nH]c3ccccc3nc-2c(=O)[nH]1

>  <Total Cell Count>
210

$$$$

// moving on: another record for Total Cell Count
Total Cell Count recorded for this compound, COc1cc(OC2CCN(C(C)=O)CC2)ccc1C(=O)N1CCC(N2C(=O)OCc3ccccc32)CC1 , is 130

* * *

Hi there, I'd appreciate the recorded Population Healthy Nuclei (%) for every entry that follows.
tested on: U2OS; experiment: Multiplex assay against U2OS; format: toxicity, cell-based; settings: human, 24 h, 10 µM, compound concentration 10 uM, replicate 1
One number for each entry, in %.

>  <molecule>
C[C@H](NC(=O)CNC(=O)c1cccc(Cl)c1)c1ccccc1

>  <Population Healthy Nuclei (%)>
61

$$$$
>  <molecule>
COc1c(Nc2ccc(S(C)(=O)=O)nc2C)ncnc1OC1CCN(C(=O)OC(C)C)CC1

>  <Population Healthy Nuclei (%)>
61

$$$$

Now look at this entry.
# Population Healthy Nuclei (%) (molecule: O=c1nc2[nH]c3ccccc3nc-2c(=O)[nH]1 ) is 61

* * *

system: HEK-293T; assay: Multiplex assay against HEK293T; type: toxicity, cell-based; conditions: human, 12 h, 10 µM, compound concentration 10 uM, replicate 2
For each record, write down the corresponding Population Tubulin-Different-Phenotype (%).
Numbers only, in %.

>  <compound>
O=c1ccc2ccc(OCCCCN3CCN(c4cccc5sccc45)CC3)cc2[nH]1

>  <system name>
HEK-293T

>  <endpoint result>
62

$$$$

Give me Population Tubulin-Different-Phenotype (%) for each of these compounds, listed below.
1. CCCCCCNC(=O)Nc1ccc(S(=O)(=O)Nc2ccc(CCNC[C@H](O)COc3ccc(O)cc3)cc2)cc1
2. O=C(O)CCC/C=C\CC1C(O)CC(O)C1/C=C/C(O)COc1cccc(Cl)c1 (stereo unspecified)
3. CCC(=O)OCC(=O)[C@@]1(OC(=O)CC)[C@@H](C)C[C@H]2[C@@H]3CCC4=CC(=O)C=C[C@]4(C)[C@@]3(Cl)[C@@H](O)C[C@@]21C [BECLOMETHASONE DIPROPIONATE]

**Result**
1: 61; 2: 37; 3: 35
